All values here come from patent US20220315554A1.

target: Human recombinant FAP (Homo sapiens, UniProt Q12884); experiment: Surface plasmon resonance (Biacore) assay
Sequence (Q12884 whole entry): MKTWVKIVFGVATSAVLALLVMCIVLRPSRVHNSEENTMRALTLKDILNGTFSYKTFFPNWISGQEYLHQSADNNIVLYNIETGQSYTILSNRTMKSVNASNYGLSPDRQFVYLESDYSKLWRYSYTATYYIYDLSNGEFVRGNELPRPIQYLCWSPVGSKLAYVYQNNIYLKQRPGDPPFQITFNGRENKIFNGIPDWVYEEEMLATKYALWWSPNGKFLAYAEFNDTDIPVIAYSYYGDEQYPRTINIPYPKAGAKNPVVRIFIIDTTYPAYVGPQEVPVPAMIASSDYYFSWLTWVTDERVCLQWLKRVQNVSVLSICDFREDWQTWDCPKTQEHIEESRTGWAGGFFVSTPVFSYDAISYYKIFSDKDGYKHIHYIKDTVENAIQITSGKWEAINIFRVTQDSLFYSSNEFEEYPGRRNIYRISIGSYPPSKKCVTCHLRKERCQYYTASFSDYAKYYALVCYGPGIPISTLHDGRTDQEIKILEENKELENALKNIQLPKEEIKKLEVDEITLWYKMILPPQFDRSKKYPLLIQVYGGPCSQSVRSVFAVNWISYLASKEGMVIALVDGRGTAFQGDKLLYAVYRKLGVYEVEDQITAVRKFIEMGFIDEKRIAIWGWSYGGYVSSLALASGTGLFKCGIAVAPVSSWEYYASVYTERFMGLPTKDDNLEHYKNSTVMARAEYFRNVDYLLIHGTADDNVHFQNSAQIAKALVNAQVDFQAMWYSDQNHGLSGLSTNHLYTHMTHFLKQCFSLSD
pKd: −log10 of the molar value.
# Lookup of reported pKd keyed by entry

{"Smiles repr": "CCCCCC(=O)N[C@H]1CSCc2cccc(c2)CSC[C@@H](C(=O)N[C@@H](CCCCNC(=O)CN2CCN(CC(=O)O)CCN(CC(=O)O)CCN(CC(=O)O)CC2)CC(=O)O)NC(=O)[C@H](Cc2ccccc2)NC(=O)[C@H](CCC(N)=O)NC(=O)[C@H]([C@@H](C)O)NC(=O)[C@@H]2CCCN2C(=O)[C@@H]2CCCN2C1=O", "pKd": "> 8.00"}
{"Smiles repr": "CSCC[C@H](NC(=O)CCC(=O)NCCCOCCOCCOCCOCCCNC(=O)CN1CCN(CC(=O)O)CCN(CC(=O)O)CCN(CC(=O)O)CC1)C(=O)N[C@H]1CSCc2cccc(c2)CSC[C@@H](C(=O)N[C@@H](CC(=O)O)C(=O)N[C@@H](Cc2c[nH]cn2)C(=O)N[C@@H](Cc2ccccc2)C(=O)N[C@@H](CCCNC(=N)N)C(=O)N[C@@H](CC(=O)O)C(N)=O)NC(=O)[C@H](Cc2ccccc2)NC(=O)[C@H](CCC(=O)O)NC(=O)[C@H]2NC(=O)[C@@H]3C(CCN3C(=O)[C@@H]3CCCN3C1=O)[C@H]2O", "pKd": "> 8.00"}
